Molecular target: T1, 14-3-3η, full length, N-terminally His6-tagged (human, UniProt Q04917 1-246)
T1 chain: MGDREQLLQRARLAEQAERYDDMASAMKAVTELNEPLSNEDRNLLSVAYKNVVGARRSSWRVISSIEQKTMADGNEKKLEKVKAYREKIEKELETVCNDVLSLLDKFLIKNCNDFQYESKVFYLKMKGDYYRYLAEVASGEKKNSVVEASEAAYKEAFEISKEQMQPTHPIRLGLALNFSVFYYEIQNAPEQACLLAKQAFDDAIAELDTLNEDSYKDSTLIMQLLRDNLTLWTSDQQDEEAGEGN
Experiment: FP
Primed or numbered codes have the meaning given here. Where no end group is shown, it is not given here. [ ]: non-standard residue; d: D form. The star is where a group is joined. PEG2′ = short PEG linker placed between the N-terminal FITC label and the peptide; FITC = O=C1OC2(c3ccc(O)cc3Oc3cc(O)ccc32)c2ccc(NC(=S)*)cc21; pS = N[C@@H](COP(=O)(O)O)C(=O)O
recorded_metric: Kd (nM)
Quick note: give the figure in nM, leave out the unit.

// Kd lookup, binder = {FITC-PEG2′}-EKNKNAN[pS]SPVASTTPSASATTNPASATTLDQSKAWNR (also: second phosphorylation within Ser61–Thr64, site not given here) [fluorescently labeled peptide 10, APN 36–73, bis-phosphorylated] , result: 420
